# Test system: Raji
# testMethodNotes: Inhibition of TPA-induced EBV-early antigen activation in human Raji cells at 100 molar ratio after 48 hrs relative to TPA; values are per cent of control
# setupConditions: human gammaherpesvirus 4

{"columns": ["compound", "level, % of control (%)"],
 "data": [
  ["C[C@H](CCC(=O)C(C)(C)O)[C@H]1CC[C@@]2(C)[C@@H]3CC=C4[C@@H](CC[C@H](O)C4(C)C)[C@]3(C)C(=O)C[C@]12C [BRYOSIGENIN]", 73.5],
  ["C[C@H](CC[C@@H](O)C(C)(C)O)[C@H]1CC[C@@]2(C)[C@@H]3CC=C4[C@@H](CC[C@H](O[C@@H]5O[C@H](CO)[C@@H](O)[C@H](O)[C@H]5O[C@@H]5O[C@@H](C)[C@H](O)[C@@H](O)[C@H]5O)C4(C)C)[C@]3(C)C(=O)C[C@]12C [BRYONIOSIDE B]", 72.7],
  ["C[C@H](CC[C@@H](O)C(C)(C)O)[C@H]1CC[C@@]2(C)[C@@H]3CC=C4[C@@H](CC[C@H](O[C@@H]5O[C@H](CO)[C@@H](O)[C@H](O)[C@H]5O)C4(C)C)[C@]3(C)C(=O)C[C@]12C [CABENOSIDE D]", 69.3],
  ["CC(C)(O)CCC(=O)[C@@](C)(O)[C@H]1[C@H](O)C[C@@]2(C)[C@@H]3CC=C4[C@@H](C=C(O[C@@H]5O[C@H](CO)[C@@H](O)[C@H](O)[C@H]5O)C(=O)C4(C)C)[C@]3(C)C(=O)C[C@]12C [BRYOAMARIDE]", 71.7]
]}

* * *

Below: a set of entries, each annotated with reported ID50.
# System: Mus musculus
# testMethodNotes: Antiinflammatory activity against ICR mouse assessed as inhibition of TPA-induced ear edema compound administered topically preincubated 30 mins before TPA challenge
# Format: functional

{"columns": ["molecule", "system", "ID50 / mg"],
 "data": [
  ["C[C@H](CC[C@@H](O)C(C)(C)O)[C@H]1CC[C@@]2(C)[C@@H]3CC=C4[C@@H](CC[C@H](O[C@@H]5O[C@H](CO)[C@@H](O)[C@H](O)[C@H]5O[C@@H]5O[C@@H](C)[C@H](O)[C@@H](O)[C@H]5O)C4(C)C)[C@]3(C)C(=O)C[C@]12C [BRYONIOSIDE B]", "Mus musculus", 0.2],
  ["C[C@H](CC[C@@H](O)C(C)(C)O)[C@H]1CC[C@@]2(C)[C@@H]3CC=C4[C@@H](CC[C@H](O[C@@H]5O[C@H](CO)[C@@H](O)[C@H](O)[C@H]5O)C4(C)C)[C@]3(C)C(=O)C[C@]12C [CABENOSIDE D]", "Mus musculus", 0.6]
]}

* * *

# Tested on: Raji
# testMethodNotes: Inhibition of TPA-induced EBV-early antigen activation in human Raji cells at 10 molar ratio after 48 hrs relative to TPA; values are per cent of control
# setupConditions: human gammaherpesvirus 4
measurementName: level, % of control (%)

{"columns": ["molecule", "readoutUnit", "readoutValue"],
 "data": [
  ["C[C@H](CC[C@@H](O)C(C)(C)O)[C@H]1CC[C@@]2(C)[C@@H]3C[C@@H]4O[C@]45[C@@H](CC[C@H](O[C@@H]4O[C@H](CO)[C@@H](O)[C@H](O)[C@H]4O)C5(C)C)[C@]3(C)C(=O)C[C@]12C [5ALPHA,6ALPHA-EPOXYCABENOSIDE D]", "%", 95.3],
  ["C[C@H](CC[C@@H](O)C(C)(C)O)[C@H]1CC[C@@]2(C)[C@@H]3CC=C4[C@@H](CC[C@H](O[C@@H]5O[C@H](CO)[C@@H](O)[C@H](O)[C@H]5O[C@@H]5O[C@@H](C)[C@H](O)[C@@H](O)[C@H]5O)C4(C)C)[C@]3(C)C(=O)C[C@]12C [BRYONIOSIDE B]", "%", 97.4],
  ["CC1=C(/C=C/C(C)=C/C=C/C(C)=C/C=C/C=C(C)/C=C/C=C(C)/C=C/C2=C(C)CCCC2(C)C)C(C)(C)CCC1", "%", 100],
  ["C[C@H](CCC(=O)C(C)(C)O)[C@H]1CC[C@@]2(C)[C@@H]3CC=C4[C@@H](CC[C@H](O[C@@H]5O[C@H](CO)[C@@H](O)[C@H](O)[C@H]5O[C@@H]5O[C@@H](C)[C@H](O)[C@@H](O)[C@H]5O)C4(C)C)[C@]3(C)C(=O)C[C@]12C [BRYONIOSIDE G]", "%", 100],
  ["C[C@H](C(O)CC(O)C(C)(C)O[C@@H]1O[C@H](CO)[C@@H](O)[C@H](O)[C@H]1O)[C@H]1CC[C@@]2(C)[C@@H]3CC=C4[C@@H](CC[C@H](O)C4(C)C)[C@]3(C)C(=O)C[C@]12C (stereo partly drawn) [BRYONIOSIDE E]", "%", 100],
  ["C[C@H](CCC(=O)C(C)(C)O)[C@H]1CC[C@@]2(C)[C@@H]3CC=C4[C@@H](CC[C@H](O[C@@H]5O[C@H](CO)[C@@H](O)[C@H](O)[C@H]5O)C4(C)C)[C@]3(C)C(=O)C[C@]12C [BRYONIOSIDE F]", "%", 97.6],
  ["C[C@H](CC[C@@H](O)C(C)(C)O)[C@H]1CC[C@@]2(C)[C@@H]3CC=C4[C@@H](CC[C@H](O[C@@H]5O[C@H](CO)[C@@H](O)[C@H](O)[C@H]5O)C4(C)C)[C@]3(C)C(=O)C[C@]12C [CABENOSIDE D]", "%", 94.1],
  ["CC(C)(O)CCC(=O)[C@@](C)(O)[C@H]1[C@H](O)C[C@@]2(C)[C@@H]3CC=C4[C@@H](C=C(O[C@@H]5O[C@H](CO)[C@@H](O)[C@H](O)[C@H]5O)C(=O)C4(C)C)[C@]3(C)C(=O)C[C@]12C [BRYOAMARIDE]", "%", 96]
]}

Hello, the source for this data is ChEMBL document CHEMBL1159318, in case you need it.
